biological target: T1, human HER3 endogenously expressed on human cancer cells (SK-Br-3, BT-474, MCF7) (human, UniProt P21860 20-1342); assay: FACS titration of IgG on SK-Br-3 cells (endogenous HER3)
T1 construct: Endogenous protein of the cell lines; also called ErbB3; endogenous human antigen
EC50 values for the binders below.
Numeric only. Scale: nM

binder	readout_units	EC50
MOR14533 (antibody, human IgG1, kappa, V domains shown, Tested as IgG) VH: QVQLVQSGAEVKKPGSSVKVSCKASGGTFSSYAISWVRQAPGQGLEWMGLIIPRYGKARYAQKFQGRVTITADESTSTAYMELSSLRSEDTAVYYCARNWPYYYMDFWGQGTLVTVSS VL: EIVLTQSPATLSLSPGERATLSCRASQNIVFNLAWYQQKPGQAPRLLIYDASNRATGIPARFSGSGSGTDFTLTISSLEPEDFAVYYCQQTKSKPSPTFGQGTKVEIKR	nM	0.042
MOR14534 (antibody, human IgG1, kappa, V domains shown, Tested as IgG) VH: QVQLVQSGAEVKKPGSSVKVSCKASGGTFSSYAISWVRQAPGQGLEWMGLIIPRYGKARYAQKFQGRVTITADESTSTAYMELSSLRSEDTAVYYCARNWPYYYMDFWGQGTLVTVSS VL: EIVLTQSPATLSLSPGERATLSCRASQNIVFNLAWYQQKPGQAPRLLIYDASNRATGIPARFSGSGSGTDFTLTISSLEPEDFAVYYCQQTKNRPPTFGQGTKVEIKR	nM	0.028
MOR14538 (antibody, human IgG1, lambda, V domains shown, Tested as IgG) VH: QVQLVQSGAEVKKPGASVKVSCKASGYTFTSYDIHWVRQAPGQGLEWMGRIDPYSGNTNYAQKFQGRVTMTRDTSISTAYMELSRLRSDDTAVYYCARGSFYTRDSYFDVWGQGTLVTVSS VL: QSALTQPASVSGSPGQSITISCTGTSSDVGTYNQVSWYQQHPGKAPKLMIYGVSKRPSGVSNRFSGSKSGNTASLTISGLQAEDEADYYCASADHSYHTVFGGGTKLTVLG	nM	0.279

--- query ---
For MOR14537 (antibody, human IgG1, lambda, V domains shown, Tested as IgG) VH: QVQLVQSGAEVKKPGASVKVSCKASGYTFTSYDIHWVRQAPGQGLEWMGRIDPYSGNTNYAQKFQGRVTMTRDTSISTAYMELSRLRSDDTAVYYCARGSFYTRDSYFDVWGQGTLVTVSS VL: QSALTQPASVSGSPGQSITISCTGTSSDVGTYNQVSWYQQHPGKAPKLMIYGVSKRPSGVSNRFSGSKSGNTASLTISGLQAEDEADYYCSSATQKPDVTVFGGGTKLTVLG the binder record lists EC50 as 0.179
